B1: LINE1-full (parent)
chain: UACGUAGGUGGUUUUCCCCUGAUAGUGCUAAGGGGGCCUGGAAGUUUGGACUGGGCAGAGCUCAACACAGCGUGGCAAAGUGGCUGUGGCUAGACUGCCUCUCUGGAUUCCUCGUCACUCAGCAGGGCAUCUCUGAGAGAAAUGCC

- Variants of: B1
- Assay Overview: self-cleavage, relative activity (ratio to wild type); higher = more cleavage; in vitro, sequencing; the parent is a self-cleaving ribozyme
Attribute Measured: self-cleavage

- Mutation Code: "U26A C113U"
  Endpoint Result: 0.86
- Mutation Code: "U13A C110A"
  Endpoint Result: 0.84
- Mutation Code: "A67U U73A"
  Endpoint Result: 0.05
- Mutation Code: "G114A A140U"
  Endpoint Result: 1.55
- Mutation Code: "G55U C133A"
  Endpoint Result: 0.26

Incoming: Given the variant C71A U130A , write its reported self-cleavage.
Outgoing: 0.17

Incoming: Given the variant U13C U143G , write its reported self-cleavage.
Outgoing: 2.3

Incoming: Given the variant C19G A77G , write its reported self-cleavage.
Outgoing: 2.07

Incoming: Given the variant G106A U108C , write its reported self-cleavage.
Outgoing: 1.61

Incoming: Given the variant C19U C51U , write its reported self-cleavage.
Outgoing: 1.01

Incoming: Given the variant C113A C145U , write its reported self-cleavage.
Outgoing: 1.25

Incoming: Given the variant G75C A77G , write its reported self-cleavage.
Outgoing: 0.8

Incoming: Given the variant U62A A136U , write its reported self-cleavage.
Outgoing: 0.14

Incoming: Given the variant U115C A141G , write its reported self-cleavage.
Outgoing: 1.76
